assayOverview: Stability in fresh mouse plasma at room temperature
Type: in vitro ADME
Parameter: half-life. Scope: all listed entries.

NCC(=O)Oc1ccc2c3c(cccc13)OC1(C=CC(=O)c3c(O)cccc31)O2 (centres unmarked) : < 2 min

Please give the documented half-life of O=C1C=CC2(Oc3cccc4c(O)ccc(c34)O2)c2cccc(O)c21 (centres unmarked) ~31 min

###

Parameter: IC50. Scope: all listed entries.
targetEntity: human thioredoxin reductase (Homo sapiens)
Construct: (placenta); from tissue; host or cells: human placenta
assayOverview: Inhibition of purified human thioredoxin reductase (TrxR/TR)
Format: biochemical
conditionSet: Table 2; read-out: Inhibition of human thioredoxin reductase IC50
I only need the number, in nM, no unit after it.

COc1ccc2c3c(cccc13)OC1(C=CC(=O)c3ccccc31)O2 (stereo not shown) [PX-911] : 3200
O=C1C=CC2(Oc3cccc4cccc(c34)O2)c2cccc(O)c21 [palmarumycin C1, palmarumycin CP1, reference compound] : 350

Please give the documented IC50 of NCC(=O)Oc1ccc2c3c(cccc13)OC1(C=CC(=O)c3c(O)cccc31)O2 (stereo not shown) [PX-916, O-glycyl naphthoquinone spiroketal] 280

Please give the documented IC50 of O=C1C=CC2(Oc3cccc4c(O)ccc(c34)O2)c2cccc(O)c21 (stereo not shown) [PX-960] 270

###

targetEntity: human thioredoxin reductase (Homo sapiens)
Construct: (placenta); from tissue; host or cells: human placenta
Sequence (Q16881 151-649 limits assumed): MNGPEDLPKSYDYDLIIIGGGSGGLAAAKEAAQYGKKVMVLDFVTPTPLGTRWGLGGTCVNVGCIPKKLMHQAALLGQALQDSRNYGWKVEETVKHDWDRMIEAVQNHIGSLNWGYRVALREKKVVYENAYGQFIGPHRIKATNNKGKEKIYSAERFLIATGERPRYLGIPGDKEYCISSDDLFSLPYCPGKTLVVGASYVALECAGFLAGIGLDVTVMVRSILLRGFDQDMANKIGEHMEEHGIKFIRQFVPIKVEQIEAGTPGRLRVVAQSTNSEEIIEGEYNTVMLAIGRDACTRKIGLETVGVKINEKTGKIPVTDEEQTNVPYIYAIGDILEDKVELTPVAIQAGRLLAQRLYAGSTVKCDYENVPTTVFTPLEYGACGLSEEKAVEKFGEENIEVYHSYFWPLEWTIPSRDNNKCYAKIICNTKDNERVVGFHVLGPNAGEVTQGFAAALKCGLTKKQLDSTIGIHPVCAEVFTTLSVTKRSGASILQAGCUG
assayOverview: Inhibition of purified human thioredoxin reductase (TrxR/TR)
Format: biochemical
conditionSet: Table 1; read-out: TrxR inhibitory activity IC50
measureName: IC50 (nM)
I only need the number, in nM, no unit after it.

Here's what some known entries look like.
O=C1C=CC2(Oc3cccc4c(O)ccc(c34)O2)c2cccc(O)c21 (centres unmarked) [PX-960] : 200
CC(C)C(N)C(=O)Oc1ccc2c3c(cccc13)OC1(C=CC(=O)c3ccccc31)O2 (centres unmarked) [Compound 11] : 620

Quote IC50 with test system human thioredoxin reductase (Homo sapiens) for O=C1C=CC2(Oc3cccc4c(OCCN5CCOCC5)ccc(c34)O2)c2cccc(O)c21 (centres unmarked) [Compound 14] 4200

Quote IC50 with test system human thioredoxin reductase (Homo sapiens) for O=C1C=CC2(Oc3cccc4c(OCCN5CCOCC5)ccc(c34)O2)c2ccccc21 (centres unmarked) [Compound 13] 1600

Quote IC50 with test system human thioredoxin reductase (Homo sapiens) for NCC(=O)Oc1ccc2c3c(cccc13)OC1(C=CC(=O)c3c(O)cccc31)O2 (centres unmarked) [PX-916, O-glycyl naphthoquinone spiroketal] 280

###

assayOverview: pH dependent stability in water / 0.1M sodium phosphate buffer
Format: physicochemical
conditionSet: water; pH 7 and above; read-out: t1/2 in water (converted)
measureName: half-life

Please give the documented half-life of NCC(=O)Oc1ccc2c3c(cccc13)OC1(C=CC(=O)c3c(O)cccc31)O2 (stereo not shown) [PX-916, O-glycyl naphthoquinone spiroketal] < 1 h

###

targetEntity: human thioredoxin reductase (Homo sapiens, UniProt Q16881)
Construct: (placenta); from tissue; host or cells: human placenta
assayOverview: Inhibition of purified human thioredoxin reductase (TrxR/TR)
Format: biochemical
conditionSet: read-out: IC50 purified TrxR
measureName: IC50 (µM)
I only need the number, in µM, no unit after it.

Please give the documented IC50 of NCC(=O)Oc1ccc2c3c(cccc13)OC1(C=CC(=O)c3c(O)cccc31)O2 (stereo not shown) 0.28

###

targetEntity: human thioredoxin reductase (Homo sapiens, UniProt Q16881)
Construct: (placenta); from tissue; host or cells: human placenta
Sequence (Q16881 151-649 limits assumed): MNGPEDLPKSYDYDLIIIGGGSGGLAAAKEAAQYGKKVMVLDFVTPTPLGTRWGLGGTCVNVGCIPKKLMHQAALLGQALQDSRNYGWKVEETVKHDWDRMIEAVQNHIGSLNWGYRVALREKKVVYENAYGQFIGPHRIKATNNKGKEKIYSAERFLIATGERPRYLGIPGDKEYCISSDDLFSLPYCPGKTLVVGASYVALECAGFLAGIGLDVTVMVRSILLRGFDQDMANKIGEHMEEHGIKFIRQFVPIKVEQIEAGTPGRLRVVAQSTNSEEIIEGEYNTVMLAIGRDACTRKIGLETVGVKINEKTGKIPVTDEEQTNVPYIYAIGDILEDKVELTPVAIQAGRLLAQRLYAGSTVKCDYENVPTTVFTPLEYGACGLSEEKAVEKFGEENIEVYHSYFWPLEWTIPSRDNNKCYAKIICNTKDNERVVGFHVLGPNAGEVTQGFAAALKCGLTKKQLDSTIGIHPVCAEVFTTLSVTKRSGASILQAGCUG
assayOverview: Inhibition of purified human thioredoxin reductase (TrxR/TR)
Type: biochemical
conditionSet: read-out: IC50 purified human TR
measureName: IC50 (nM)
I only need the number, in nM, no unit after it.

Please give the documented IC50 of NCC(=O)Oc1ccc2c3c(cccc13)OC1(C=CC(=O)c3c(O)cccc31)O2 (stereo not shown) 280

###

assayOverview: pH dependent stability in water / 0.1M sodium phosphate buffer
Assay type: physicochemical
conditionSet: water, pH 4; room temperature, pH4; read-out: t1/2 in water (converted)
measureName: half-life (h)
I only need the number, in h, no unit after it.

Please give the documented half-life of NCC(=O)Oc1ccc2c3c(cccc13)OC1(C=CC(=O)c3c(O)cccc31)O2 (stereo not shown) 37

###

assayOverview: Stability in ethanol at room temperature
Format: physicochemical
conditionSet: ethanol, b120, read-out: half-life for conversion to PX-960 in ethanol
Excerpt: PX-916 was stable as a stock solution in ethanol at room temperature with a half life of >5 days. […] Therefore, for in vitro studies PX-916 was used as a stock solution in ethanol, and for in vivo studies made fresh in pH 4.0 buffer vehicle.
measureName: half-life

Please give the documented half-life of NCC(=O)Oc1ccc2c3c(cccc13)OC1(C=CC(=O)c3c(O)cccc31)O2 (stereo not shown) [PX-916, O-glycyl naphthoquinone spiroketal] > 120 h

###

Tested on: MCF-7 human breast cancer cells
assayOverview: MCF-7 breast cancer cell growth inhibition
Assay type: cell-based
conditionSet: Homo sapiens, MCF7; read-out: IC50 MCF-7 cell growth
measureName: IC50 (µM)
I only need the number, in µM, no unit after it.

Please give the documented IC50 of NCC(=O)Oc1ccc2c3c(cccc13)OC1(C=CC(=O)c3c(O)cccc31)O2 (stereo not shown) 3.1

###

assayOverview: pH dependent stability in water / 0.1M sodium phosphate buffer
Assay type: physicochemical
conditionSet: 100 g/ml in 0.1M sodium phosphate buffer, pH 4.0
measureName: half-life at 100 g/ml

Here's what some known entries look like.
CC(C)(NNC1CC(=O)c2c(O)cccc2C12Oc1cccc3c(O)ccc(c13)O2)C(N)=O (stereo not drawn) : > 4.17 days
NC(Cc1ccccc1)C(=O)Oc1ccc2c3c(cccc13)OC1(C=CC(=O)c3c(O)cccc31)O2 (stereo not drawn) : > 4.17 days

Please give the documented half-life at 100 g/ml of O=C1C=CC2(Oc3cccc4c(OC5OC(CO)C(O)C(O)C5O)ccc(c34)O2)c2cccc(O)c21 (stereo not drawn) > 4.17 days

###

assayOverview: Aqueous solubility
Format: physicochemical
conditionSet: water; read-out: water solubility
measureName: solubility (µg/mL)
I only need the number, in µg/mL, no unit after it.

Please give the documented solubility of NCC(=O)Oc1ccc2c3c(cccc13)OC1(C=CC(=O)c3c(O)cccc31)O2 (centres unmarked) 700

###

targetEntity: UniProtKB P00390
Sequence (P00390 45-522 limits assumed): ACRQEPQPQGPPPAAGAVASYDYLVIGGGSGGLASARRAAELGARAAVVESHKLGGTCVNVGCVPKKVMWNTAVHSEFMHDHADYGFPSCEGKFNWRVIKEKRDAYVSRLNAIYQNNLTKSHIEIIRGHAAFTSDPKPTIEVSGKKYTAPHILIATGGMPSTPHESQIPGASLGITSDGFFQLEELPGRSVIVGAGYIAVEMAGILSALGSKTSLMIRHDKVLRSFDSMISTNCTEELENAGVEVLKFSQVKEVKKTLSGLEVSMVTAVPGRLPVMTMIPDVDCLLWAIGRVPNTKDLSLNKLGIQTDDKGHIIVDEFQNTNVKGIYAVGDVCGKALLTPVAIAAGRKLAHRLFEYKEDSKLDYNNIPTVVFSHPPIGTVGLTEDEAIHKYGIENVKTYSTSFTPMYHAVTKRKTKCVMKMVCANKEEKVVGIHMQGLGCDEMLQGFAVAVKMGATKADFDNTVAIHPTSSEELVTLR
assayOverview: Inhibition of human glutathione reductase (selectivity)
conditionSet: Table 3; read-out: Inhibition IC50, glutathione reductase (red blood cell)
pIC50: −log10 of the molar value.
measureName: pIC50

Please give the documented pIC50 of NCC(=O)Oc1ccc2c3c(cccc13)OC1(C=CC(=O)c3c(O)cccc31)O2 (stereo not shown) < 4.30

###

assayOverview: Aqueous solubility
Format: physicochemical
conditionSet: 20% β-cyclodextrin, aqueous with cosolvent or surfactant or cyclodextrin; read-out: solubility with 20% β-cyclodextrin
measureName: solubility (mg/mL)
I only need the number, in mg/mL, no unit after it.

Please give the documented solubility of NCC(=O)Oc1ccc2c3c(cccc13)OC1(C=CC(=O)c3c(O)cccc31)O2 (stereo not shown) 2
